EC50 reference
Tested on: Toxoplasma gondii
Assay: Antiparasitic activity against Toxoplasma gondii tachyzoites infected in human TerT cells assessed as decrease in parasite viability by red fluorescent protein based fluorescence method
Assay type: functional
Conditions: read-out: ED50 (the source's name)

CCCCCCCCCCCSCC(P(=O)(O)O)P(=O)(O)O; 0.54 µM
CCCCCCCCCCCS(=O)(=O)CC(P(=O)(O)O)P(=O)(O)O; 0.38 µM
CC1CCC(NCC(P(=O)(O)O)P(=O)(O)O)CC1 (stereo unspecified); > 20 µM
CCCCCCCCNCC(F)(P(=O)(O)O)P(=O)(O)O; 4.01 µM
CCCCCCCCCCCCNCC(P(=O)(O)O)P(=O)(O)O; 6.23 µM

Please examine the following record next.
Task: Any idea what its EC50 is? The compound is CCCCCCNCC(F)(P(=O)(O)O)P(=O)(O)O
Output: > 10 µM

---

EC50 reference
System: Toxoplasma gondii
Assay: Antiparasitic activity against Toxoplasma gondii tachyzoites infected in human TerT cells assessed as decrease in parasite viability by red fluorescent protein based fluorescence method
Assay type: functional
Conditions: read-out: ED50 (the source's name)

O=P(O)(O)C(CNC1CCCC1)P(=O)(O)O; > 20 µM
CCCCCCNCC(P(=O)(O)O)P(=O)(O)O; 9.4 µM
CCCCCCCCCCCCS(=O)(=O)CC(P(=O)(O)O)P(=O)(O)O; 0.93 µM
CCCCCCCCCCC[S+]([O-])CC(P(=O)(O)O)P(=O)(O)O (configuration not stated); 0.53 µM
CCCCCCCNCC(P(=O)(O)O)P(=O)(O)O; > 50 µM

Task: Any idea what its EC50 is? The molecule is CCCCCCCC[S+](C)CC(P(=O)(O)O)P(=O)(O)O (configuration not stated)
Output: 7 µM

Task: Any idea what its EC50 is? The molecule is CCCCCCCCCCNCC(F)(P(=O)(O)O)P(=O)(O)O
Output: 2.26 µM

Task: Any idea what its EC50 is? The molecule is CCCCCCCSCC(P(=O)(O)O)P(=O)(O)O
Output: 0.97 µM

Task: Any idea what its EC50 is? The molecule is CCCCCCCCCNCC(F)(P(=O)(O)O)P(=O)(O)O
Output: 2.24 µM

Task: Any idea what its EC50 is? The molecule is CCCCCCCCNCC(O)(P(=O)(O)O)P(=O)(O)O
Output: 2 µM

Task: Any idea what its EC50 is? The molecule is CCCCCCCNCC(F)(P(=O)(O)O)P(=O)(O)O
Output: > 10 µM

Task: Any idea what its EC50 is? The molecule is CCCCCCCCC(F)(P(=O)(O)O)P(=O)(O)O
Output: 2.67 µM

---

Target: Farnesyl diphosphate synthase (Trypanosoma cruzi)
Sequence (Q8WS26 whole entry): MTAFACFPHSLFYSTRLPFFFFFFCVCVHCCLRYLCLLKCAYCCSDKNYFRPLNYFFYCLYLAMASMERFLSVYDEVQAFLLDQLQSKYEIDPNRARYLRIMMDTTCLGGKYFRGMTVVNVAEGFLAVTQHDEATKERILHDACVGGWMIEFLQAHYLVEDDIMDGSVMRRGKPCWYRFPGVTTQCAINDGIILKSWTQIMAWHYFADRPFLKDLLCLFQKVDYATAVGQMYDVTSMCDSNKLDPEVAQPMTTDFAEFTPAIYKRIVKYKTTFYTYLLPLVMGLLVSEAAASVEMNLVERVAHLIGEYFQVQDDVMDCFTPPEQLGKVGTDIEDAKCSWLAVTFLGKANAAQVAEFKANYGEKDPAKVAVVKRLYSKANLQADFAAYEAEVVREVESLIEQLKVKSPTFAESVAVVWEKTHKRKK
pIC50 reference
Bear in mind: pIC50 is minus log10 of a mol/L concentration; give just that figure.

Task: pIC50 of CCCCCCCCCCNCC(F)(P(=O)(O)O)P(=O)(O)O on Farnesyl diphosphate synthase (Trypanosoma cruzi)?
Output: 6.87

Task: pIC50 of CCCNCC(F)(P(=O)(O)O)P(=O)(O)O on Farnesyl diphosphate synthase (Trypanosoma cruzi)?
Output: 7.22

Task: pIC50 of CCCCCCCNCC(F)(P(=O)(O)O)P(=O)(O)O on Farnesyl diphosphate synthase (Trypanosoma cruzi)?
Output: 7.15

Task: pIC50 of CCCCCNCC(F)(P(=O)(O)O)P(=O)(O)O on Farnesyl diphosphate synthase (Trypanosoma cruzi)?
Output: 6.21

Task: pIC50 of CCCCCCNCC(F)(P(=O)(O)O)P(=O)(O)O on Farnesyl diphosphate synthase (Trypanosoma cruzi)?
Output: 6.04
